- study.system: EPHB1 (UniProt P54762)
- Sequence (P54762 whole entry, looked up): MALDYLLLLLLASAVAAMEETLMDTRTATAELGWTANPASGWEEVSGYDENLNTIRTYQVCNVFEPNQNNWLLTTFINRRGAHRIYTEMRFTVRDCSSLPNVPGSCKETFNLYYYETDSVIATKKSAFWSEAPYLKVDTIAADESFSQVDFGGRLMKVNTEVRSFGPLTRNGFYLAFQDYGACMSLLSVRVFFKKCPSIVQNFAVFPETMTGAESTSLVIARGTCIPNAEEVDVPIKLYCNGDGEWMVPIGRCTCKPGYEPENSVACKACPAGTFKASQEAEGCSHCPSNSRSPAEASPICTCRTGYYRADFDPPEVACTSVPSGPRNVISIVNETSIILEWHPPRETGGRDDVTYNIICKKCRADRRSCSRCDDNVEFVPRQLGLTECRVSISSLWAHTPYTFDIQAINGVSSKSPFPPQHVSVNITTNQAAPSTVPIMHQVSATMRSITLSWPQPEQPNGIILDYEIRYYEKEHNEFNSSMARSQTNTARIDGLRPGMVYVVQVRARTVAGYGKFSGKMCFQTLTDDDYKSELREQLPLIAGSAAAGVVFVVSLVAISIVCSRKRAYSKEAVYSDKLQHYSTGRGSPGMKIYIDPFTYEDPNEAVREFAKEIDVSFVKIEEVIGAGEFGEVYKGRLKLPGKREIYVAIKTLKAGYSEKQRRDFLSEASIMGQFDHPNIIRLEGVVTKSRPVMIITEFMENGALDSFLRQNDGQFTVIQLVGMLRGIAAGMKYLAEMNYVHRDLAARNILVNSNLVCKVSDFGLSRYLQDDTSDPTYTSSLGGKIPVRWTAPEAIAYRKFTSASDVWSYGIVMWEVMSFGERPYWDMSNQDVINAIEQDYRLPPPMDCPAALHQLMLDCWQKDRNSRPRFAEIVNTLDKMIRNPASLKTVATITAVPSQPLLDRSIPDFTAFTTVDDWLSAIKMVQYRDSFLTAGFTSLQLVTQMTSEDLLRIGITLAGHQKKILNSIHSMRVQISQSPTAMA
- experiment.summary: phosphorylation enrichment, bacterial display (enrichment ratio); higher = better substrate or ligand; peptides without Tyr show the background;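 note: 11-residue human phosphosite peptides and single-mutation variants displayed on the E. coli surface, counted by deep sequencing, each peptide's frequency after selection divided by its frequency in the unselected input library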;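 note: frequency after pTyr selection over input frequency; kinase dosed for 20-30% of maximal phosphorylation in three min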
Hi, to clarify the labels: Met covers phosphorylation enrichment from 0.6 upward, Not met covers anything below 0.6.

Here are 2 sequences together with their reported answers.
Evaluate NTVDYYDLYGG [PTPN11_Y63_G60V] : phosphorylation enrichment at minimum 0.6?
Met

Tell me whether phosphorylation enrichment is at least 0.6 here: EPFKVYRIVPE [IRF8_Y110_YF]
Not met

Continuing:
phosphorylation enrichment >= 0.6 for KASGKYYAMKI [AKT3_Y173] ?
Not met

Does phosphorylation enrichment meet or surpass 0.6 for PVRIAYGRPRG [SUGP2_Y985_D986G] ?
Met

Tell me whether phosphorylation enrichment is at least 0.6 here: EALDFYGEVKT [PTEN_Y155_R159K]
Met

Textbook exercise: given the entry EQLRAYLEGLC [HLA-C_Y183_T187L] , state whether its phosphorylation enrichment is greater than or equal to 0.6.
Met

Record NTTIHYNYMCN [TP53_Y234_C229N] ; criterion: phosphorylation enrichment no lower than 0.6. Met?
Met

Is phosphorylation enrichment at least 0.6? Consider PVKDGYQMAQP [CSF1R_Y873_L868P]
Not met

Record YADPYYDYEIE [ZC3H18_Y372] ; criterion: phosphorylation enrichment no lower than 0.6. Met?
Met

Hi, just wondering whether VFLGAYDRFLP [SLC22A5_Y486_YF] shows phosphorylation enrichment of 0.6 or higher.
Met

# check: phosphorylation enrichment of RAVLLYEFVGK [NATD1_Y45_YF] is greater than or equal to 0.6
Met

Does ESDFTYSSSFE [SRPK2_Y427_YF] have a reported phosphorylation enrichment of at least 0.6?
Not met

For this sequence, is measured phosphorylation enrichment 0.6 or higher? DLVSEYQQYQD [TUBB3_Y422]
Met

Kindly determine if phosphorylation enrichment recorded for RDMMDYMPQGV [CYP21A2_Y259_L261P] is above or exactly 0.6.
Met

Say whether LAETSYVKVLE [MAGEA1_Y276] shows phosphorylation enrichment of 0.6 or more.
Not met

Please indicate if the recorded phosphorylation enrichment for QELRRYLESGV [MICA_Y194_K196E] meets or exceeds 0.6.
Met

Item GSQERYFELVE [TSC2_Y407] with phosphorylation enrichment of 0.6 or above?
Not met

Identify whether the reported phosphorylation enrichment of the following sequence is 0.6 or greater: PIAPVYAASMV [ACAT1_Y331]
Met

Given NGRTGYVLQPE [PLCG2_Y1036] , state whether its phosphorylation enrichment is at least 0.6.
Not met

State whether the measured phosphorylation enrichment reaches 0.6, counting equality as reaching it, for LLVVLCKYRCY [PSEN1_Y154_Y154C]
Not met

====

- study.system: Hck (UniProt P08631)
- Sequence (P08631 whole entry, looked up): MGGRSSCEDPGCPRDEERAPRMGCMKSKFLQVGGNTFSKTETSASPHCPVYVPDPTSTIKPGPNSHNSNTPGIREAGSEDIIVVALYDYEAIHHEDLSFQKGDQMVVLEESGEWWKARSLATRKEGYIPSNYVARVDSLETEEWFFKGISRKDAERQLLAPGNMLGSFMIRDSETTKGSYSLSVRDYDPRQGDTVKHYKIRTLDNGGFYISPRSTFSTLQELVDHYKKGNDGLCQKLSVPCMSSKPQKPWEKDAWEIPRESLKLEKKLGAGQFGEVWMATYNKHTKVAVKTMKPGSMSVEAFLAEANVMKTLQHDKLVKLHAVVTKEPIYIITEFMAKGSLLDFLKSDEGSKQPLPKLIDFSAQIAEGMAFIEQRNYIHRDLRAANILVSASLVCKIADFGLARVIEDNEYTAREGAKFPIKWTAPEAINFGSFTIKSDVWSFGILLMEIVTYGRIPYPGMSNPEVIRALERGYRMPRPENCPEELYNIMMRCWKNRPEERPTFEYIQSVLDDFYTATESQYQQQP
- experiment.summary: phosphorylation enrichment, bacterial display (enrichment ratio); higher = better substrate or ligand; peptides without Tyr show the background
Values of phosphorylation enrichment greater than or equal to 0.6 map to Yes; values below map to No.

Does IFGVSYGEYRY [CFTR_Y512_D513G] have a reported phosphorylation enrichment of at least 0.6?
Yes

Is reported phosphorylation enrichment greater than or equal to 0.6 here: YRKNIYNVKST [SYNE2_Y575]
No

Entry QGQHWYSSSDK [CASP10_Y9] : is its phosphorylation enrichment no less than 0.6?
Yes

Please indicate if the recorded phosphorylation enrichment for RLVTRYIFNRE [HLA-DQB1_Y62_Y58L_YF] meets or exceeds 0.6.
No

New cases:
I'd appreciate it if you could say whether VEDPEYAVTQL [STOML2_Y124] has phosphorylation enrichment at least equal to 0.6.
No

Say whether IVEFAYNDKAV [PUM3_Y259_I264V_YF] shows phosphorylation enrichment of 0.6 or more.
No

Hello, I need to know if DRLASYLDKVP [KRT14_Y129_R134P] has measured phosphorylation enrichment not below 0.6. Thanks!
No

Assess whether reported phosphorylation enrichment for SHGKQYRVPSD [HHIPL2_Y395_R394Q] sits at 0.6 or higher.
No

Determine whether this sequence has phosphorylation enrichment no lower than 0.6: GFEVVYVTEPI [HSP90AB1_Y512_M513V]
No

Decide: phosphorylation enrichment of LTDTVYSSSSA [OR4C12_Y71_I67T] >= 0.6?
Yes

Reported phosphorylation enrichment reaches at least 0.6 for MASISYDFCRV [BST2_Y6_T4I_YF] ?
Yes

Quick check: does GKSDPYHATTG [GJA1_Y247_S251T] have phosphorylation enrichment greater than or equal to 0.6?
No

Is phosphorylation enrichment for YETVKYINNER [ABCB7_Y345_F346I] at or above 0.6?
Yes

====

In this section, each of the sequences is paired with its reported phosphorylation enrichment.
- study.system: EPHB1 (UniProt P54762)
- experiment.summary: phosphorylation enrichment, bacterial display (enrichment ratio); higher = better substrate or ligand; peptides without Tyr show the background
Lab note: jot the number down without any unit.

Take a look at these entries with their results.
Could you share which phosphorylation enrichment value was measured for NPSYNYEIVNQ [DYNC1H1_Y3379_R3384Q] ?
10.5

Please report the recorded phosphorylation enrichment for PLDGEYSTLQI [TP53_Y327_F328S] .
1.27

I would be grateful if you could share the reported phosphorylation enrichment for KKFFSYAWPFF [BRDT_Y291_H288Y_YF] .
0.505

For the sequence shown here, YVPSNYVAEDR [FRK_Y104_I100V] , give the reported phosphorylation enrichment.
0.53

Please report the recorded phosphorylation enrichment for HLATEYVFSDF [PANX1_Y10_Q5H] .
0.808

Recorded phosphorylation enrichment of IKEFKYGIEEH [GJA1_Y137_K134E] , please.
0.39

phosphorylation enrichment for ALCHYYKLNII [ETV6_Y402_R399C] ?
0.97

Recorded phosphorylation enrichment for DLVRPYVHKIL [SF3B1_Y570] , please?
0.519

Next:
Entry VNNAVYGIDAM [EIF3J_Y143] has what phosphorylation enrichment?
0.417

# input sequence: TEALFYTDDTA [ADPRS_Y75_YF] ; wanted: its phosphorylation enrichment
0.643

Would you kindly share the measured phosphorylation enrichment for GPCKAYELSQR [SETX_Y1297_R1294C] ?
0.416

Which phosphorylation enrichment is listed for KKHIPYRQHKS [CSNK1G2_Y206_E208Q] ?
2.12

Could you tell me which phosphorylation enrichment is on file for VVSMNYRVGAL [BCHE_Y174] ?
0.511

Give the measured phosphorylation enrichment of RENGPYYASYP [GDAP2_Y487_T489A] .
1.58

Record request: phosphorylation enrichment value, item AALKLYHVSDS [VIL1_Y256]
0.493

# query: phosphorylation enrichment of entry IGEVVYQWAVM [GRIN2A_Y502_R504W]
0.89

====

- study.system: FGFR1 (UniProt P11362)
- Sequence (P11362 whole entry, looked up): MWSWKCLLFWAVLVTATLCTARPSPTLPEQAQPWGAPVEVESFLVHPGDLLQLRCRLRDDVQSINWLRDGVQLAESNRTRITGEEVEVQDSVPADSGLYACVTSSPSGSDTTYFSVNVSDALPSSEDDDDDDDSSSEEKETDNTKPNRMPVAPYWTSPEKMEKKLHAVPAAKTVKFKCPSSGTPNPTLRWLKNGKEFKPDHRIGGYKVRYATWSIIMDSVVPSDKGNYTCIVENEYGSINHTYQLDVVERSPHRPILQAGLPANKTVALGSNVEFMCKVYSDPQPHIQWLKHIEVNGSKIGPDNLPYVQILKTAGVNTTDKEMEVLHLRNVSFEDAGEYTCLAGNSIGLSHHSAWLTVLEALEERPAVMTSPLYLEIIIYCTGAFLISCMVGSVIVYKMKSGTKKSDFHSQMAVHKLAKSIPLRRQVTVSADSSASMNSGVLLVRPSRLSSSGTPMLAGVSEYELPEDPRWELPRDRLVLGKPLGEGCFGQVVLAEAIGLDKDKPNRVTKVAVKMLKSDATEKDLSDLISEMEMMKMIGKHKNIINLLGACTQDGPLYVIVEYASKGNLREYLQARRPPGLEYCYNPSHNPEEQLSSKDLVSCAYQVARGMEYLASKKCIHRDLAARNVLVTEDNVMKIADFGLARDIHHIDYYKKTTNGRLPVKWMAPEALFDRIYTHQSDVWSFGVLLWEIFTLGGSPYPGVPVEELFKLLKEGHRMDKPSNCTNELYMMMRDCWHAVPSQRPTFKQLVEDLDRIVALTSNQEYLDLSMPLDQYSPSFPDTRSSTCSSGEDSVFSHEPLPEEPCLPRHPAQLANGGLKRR
- experiment.summary: phosphorylation enrichment, bacterial display (enrichment ratio); higher = better substrate or ligand; peptides without Tyr show the background
recorded.endpoint: phosphorylation enrichment
Write the value as a bare number.

In the examples that follow, each entry is paired with its recorded phosphorylation enrichment.
Quick check: phosphorylation enrichment on FGFR1 (UniProt P11362), item GKSDPYHATTG [GJA1_Y247_S251T] ?
0.374

Requested read-out phosphorylation enrichment, target or system FGFR1 (UniProt P11362), entry AVNDFYAAKKT [CCDC178_Y422]
0.648

Fill in the recorded phosphorylation enrichment for this sequence, with FGFR1 (UniProt P11362) as test system: HNELYYEAAEH [VANGL1_Y345_E347A]
5.49

Observed phosphorylation enrichment on FGFR1 (UniProt P11362) for TDKLFYIFTPG [SLC27A4_Y243_S247P_YF] , please.
0.91

Notebook: pull reported phosphorylation enrichment for FGFR1 (UniProt P11362), entry QAYSWYQHQRA [NDST1_Y714_R709Q]
1.22

More entries:
Form field: phosphorylation enrichment recorded for RELGEYALAEY [ALDH1A3_Y492] with FGFR1 (UniProt P11362) (enter value)
0.694

// map GGSTYYIDTNA [ACTL6A_Y69_P66S] to recorded phosphorylation enrichment (system: FGFR1 (UniProt P11362))
0.724

Entry GADAIYDHINE [UQCR10_Y44] , system FGFR1 (UniProt P11362): what phosphorylation enrichment was measured?
0.5

So what phosphorylation enrichment did LECEWYKNGVK [TTN_Y2112_P2107L] get with FGFR1 (UniProt P11362)?
0.744

Give the reported phosphorylation enrichment for TGEKLYQHKEF [ZNF283_Y627_R629H] (system: FGFR1 (UniProt P11362)).
0.418

Return phosphorylation enrichment measured with FGFR1 (UniProt P11362) given this sequence: DTCPPYVLSQV [GJB4_Y237_G242V]
0.475

Please state recorded phosphorylation enrichment (tested on FGFR1 (UniProt P11362)) of SSEYHYVGGFY [CTSC_Y347]
13.4

Tell me reported phosphorylation enrichment for ERPGVYTNVVE [F11_Y608] , tested with FGFR1 (UniProt P11362).
0.438

API: value(readout= phosphorylation enrichment, system= FGFR1 (UniProt P11362), query= VPEANYTSDEE [STK33_Y439_D436E] )
0.607
